biological target: Histamine H4 receptor (Rattus norvegicus) (UniProt Q91ZY1); assay: Agonist activity at rat histamine H4 receptor expressed in HEK293 cells coexpressing Gqi5 protein assessed as calcium flux by FLIPR assay relative to histamine; type: functional, cell-based
Sequence (Q91ZY1 whole entry): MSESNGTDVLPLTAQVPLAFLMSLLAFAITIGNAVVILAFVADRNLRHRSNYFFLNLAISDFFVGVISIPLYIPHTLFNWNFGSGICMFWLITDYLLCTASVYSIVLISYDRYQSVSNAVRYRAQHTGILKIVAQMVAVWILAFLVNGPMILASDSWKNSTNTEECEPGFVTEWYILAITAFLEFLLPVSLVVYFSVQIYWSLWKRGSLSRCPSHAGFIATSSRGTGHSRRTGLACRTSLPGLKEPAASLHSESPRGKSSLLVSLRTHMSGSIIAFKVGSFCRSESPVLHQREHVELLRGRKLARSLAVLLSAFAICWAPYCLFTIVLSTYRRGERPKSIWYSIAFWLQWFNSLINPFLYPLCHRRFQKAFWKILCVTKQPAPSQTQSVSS
Parameter: Efficacy (%)
// units = %; emit number, no label

Molecule | Numeric value
CN1CCN(c2cc(C(C)(C)C)nc(N(C)C)n2)CC1 | 88
CN1CCN(c2nc(N)cc(C(C)(C)C)n2)CC1 | 82
CC(C)(C)c1cc(N2CCNCC2)nc(-n2cccc2)n1 | 84
CN1CCN(c2cc(C(C)(C)C)nc(N)n2)CC1 | 64
CN1CCN(c2cc(N3CCC(N(C)C)C3)nc(N)n2)CC1 (configuration not stated) | 62
CN1CCN(c2nc(N)ncc2N)CC1 | 88

Task: Can you share its Efficacy? I mean this molecule: CN1CCN(c2nc(N)ncc2-c2ccccc2)CC1
Result: 72
